B1: HDV Ribozyme (parent)
chain: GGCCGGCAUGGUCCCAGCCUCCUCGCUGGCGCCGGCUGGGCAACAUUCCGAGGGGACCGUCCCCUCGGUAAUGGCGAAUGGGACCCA

variants of: B1; experiment: self-cleavage, relative activity (ratio to wild type); higher = more cleavage; co-transcriptional
Respond with Yes for self-cleavage values of 0.2 and above, No for values below.

# variantAnnotation, label
records = [
    ("C58A A70U", "Yes"),
    ("U9C U65G", "Yes"),
]

Check if self-cleavage >= 0.2 (inclusive). Item: C33A A77U
No

Check if self-cleavage >= 0.2 (inclusive). Item: G11U C66A
Yes

Check if self-cleavage >= 0.2 (inclusive). Item: A42G G76U
Yes

Check if self-cleavage >= 0.2 (inclusive). Item: A70C C84U
Yes
